- studyTarget: Human CB2R (Cannabinoid receptor 2) (Homo sapiens (Human), UniProt P34972)
- Sequence (P34972 whole entry): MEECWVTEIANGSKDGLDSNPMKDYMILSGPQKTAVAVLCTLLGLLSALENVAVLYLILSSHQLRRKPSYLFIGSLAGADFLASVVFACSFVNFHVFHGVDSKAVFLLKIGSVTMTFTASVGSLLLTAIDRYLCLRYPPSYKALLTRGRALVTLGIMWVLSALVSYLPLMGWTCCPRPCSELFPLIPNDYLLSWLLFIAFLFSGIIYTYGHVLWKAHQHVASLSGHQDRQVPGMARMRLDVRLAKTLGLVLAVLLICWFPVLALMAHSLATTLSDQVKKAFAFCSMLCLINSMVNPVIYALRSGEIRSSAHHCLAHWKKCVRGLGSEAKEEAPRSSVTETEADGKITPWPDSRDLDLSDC
- assay: CB-2 in vitro cAMP assay (HTRF), inverse agonism
- testParameters: mean where tested more than once
pEC50: −log10 of the molar value.
observedProperty: pEC50

>>> print(df.to_string())
                                    molecule  op  reportedmeasurement
 0  NC(=O)CCCCOc1cc(C(c2ccc(Cl)cc2)c2ccc(Cl)cc2)cc2c(NC3CCN(S(=O)(=O)C(F)(F)F)CC3)ccnc12   =                 5.06
 1  CC(C)(C)OC(=O)CCN1CCC(Nc2cc(=O)[nH]c3ccc(C(c4ccc(Cl)cc4)c4ccc(Cl)cc4)cc23)CC1   <                 5.00
 2  O=c1cc(NCc2ccc(C(F)(F)F)nc2)c2cc(C(c3ccc(Cl)cc3)c3ccc(Cl)cc3)ccc2[nH]1   <                 5.00
 3  O=c1cc(/C=C/c2ccc(C(F)(F)F)cc2)c2cc(C(c3ccc(Cl)cc3)c3ccc(Cl)s3)ccc2[nH]1 (stereo not drawn)   <                 5.00
 4  O=c1cc(Nc2ccc(CC(F)(F)F)cc2)c2cc(C(c3ccc(Cl)cc3)c3ccc(Cl)cc3)cc(Br)c2[nH]1   <                 5.00
 5  O=c1cc(/C=C/c2ccc(C(F)(F)F)cc2)c2cc(C(c3ccccc3)c3ccc(Cl)cc3)ccc2[nH]1 (stereo not drawn)   <                 5.00
 6  O=c1cc(NCc2cccc(C(F)(F)F)c2)c2cc(C(c3ccc(Cl)cc3)c3ccc(Cl)cc3)ccc2[nH]1   =                 5.74
 7  O=C(O)c1ccc(S(=O)(=O)N2CCC(Nc3cc(=O)[nH]c4ccc(C(c5ccc(Cl)cc5)c5ccc(Cl)cc5)cc34)CC2)cc1   =                 6.62
 8  CCOC(=O)CCCNc1cc(C(c2ccc(Cl)cc2)c2ccc(Cl)cc2)cc2c(NC3CCN(S(=O)(=O)C(F)(F)F)CC3)cc(=O)[nH]c12   <                 5.00
 9  NC(=O)Cn1c(=O)cc(NC2CCN(S(=O)(=O)C(F)(F)F)CC2)c2cc(C(c3ccc(Cl)cc3)c3ccc(Cl)cc3)ccc21   <                 5.00
10  Cn1c(=O)cc(CCc2cccc(Cl)c2)c2cc(C(c3ccc(Cl)cc3)c3nccs3)ccc21 (stereo not drawn)   <                 5.00
11  O=c1cc(NC2CCNCC2)c2cc(C(c3ccc(Cl)cc3)c3nccs3)ccc2[nH]1 (stereo not drawn)   <                 5.00
12  COc1cc(NC2CCN(S(=O)(=O)C(F)(F)F)CC2)c2cc(C(c3ccc(Cl)cc3)c3ccc(Cl)cc3)cc(Br)c2n1   =                 5.32
13  O=c1cc(N[C@H]2CCN(S(=O)(=O)C(F)(F)F)C2)c2cc(C(c3ccc(Cl)cc3)c3nccs3)ccc2[nH]1 (stereo partly drawn)   <                 5.48
14  CC(C)(C)Oc1cc(/C=C/c2cccc(F)c2)c2cc(C(O)(c3ccc(Cl)cc3)c3ccsc3)ccc2n1 (stereo not drawn)   =                 6.27
15  O=c1cc(NC2CCN(S(=O)(=O)c3cccc(F)c3)CC2)c2cc(C(c3ccc(Cl)cc3)c3ccc(Cl)cc3)ccc2[nH]1   =                 5.49
16  COC(=O)c1ccc(C(=O)N2CCC(Nc3cc(=O)[nH]c4ccc(C(c5ccc(Cl)cc5)c5ccc(Cl)cc5)cc34)CC2)cc1   <                 5.00
17  NC(=O)CC(=O)N1CCC(Nc2cc(=O)[nH]c3ccc(C(c4ccc(Cl)cc4)c4ccc(Cl)cc4)cc23)CC1   =                 5.19
18  COc1cc(NC2CCN(S(=O)(=O)C(F)(F)F)CC2)c2cc(C(c3ccc(Cl)cc3)c3ccc(Cl)cc3)cc(CCCO)c2n1   =                 6.94
19  O=c1cc(NC2CCN(S(=O)(=O)N3CCCC3)CC2)c2cc(C(c3ccc(Cl)cc3)c3ccc(Cl)cc3)ccc2[nH]1   <                 5.00
20  O=C(O)COc1cc(C(c2ccc(Cl)cc2)c2ccc(Cl)cc2)cc2c(NC3CCN(S(=O)(=O)C(F)(F)F)CC3)cc(=O)[nH]c12   <                 5.00
21  COCCCc1cc(C(c2ccc(Cl)cc2)c2ccc(Cl)cc2)cc2c(NC3CCN(S(=O)(=O)C(F)(F)F)CC3)cc(=O)[nH]c12   =                 7.22
22  Clc1ccc(C(c2ccc3nccc(/C=C/c4ccccc4)c3c2)c2cscn2)cc1 (stereo not drawn)   <                 5.00
23  O=C(O)CCCCOc1cc(C(c2ccc(Cl)cc2)c2ccc(Cl)cc2)cc2c(NC3CCN(S(=O)(=O)C(F)(F)F)CC3)ccnc12   =                 5.62
24  O=c1cc(NC2CCN(S(=O)(=O)C(F)(F)F)CC2)c2cc(C(O)(c3ccc(Cl)cc3)c3ccc(Cl)cc3)ccc2[nH]1   =                 5.27
25  O=c1cc(/C=C/c2cccc(F)c2)c2cc(C(c3ccc(Cl)cc3)c3ccc(Cl)cc3)ccc2[nH]1   =                 6.18
26  O=c1cc(NC2CCN(CC(F)(F)F)CC2)c2cc(C(c3ccc(Cl)cc3)c3ccc(Cl)cc3)ccc2[nH]1   <                 5.00
